Listed next: entries and their corresponding 50 μM % Lysed cells (1 h LDH).
test system: SJSA-1 cells; test: Cell lysis by peptidomimetic macrocycles (LDH release); type: cell-based; conditions: 50 μM, SJSA-1, 1 h

- Compound: "CC(=O)N[C@@H](CC(C)C)C(=O)N[C@H](C(=O)N[C@@H](Cc1ccccc1)C(=O)N[C@]1(C)CCCCCC/C=C/CCC[C@@](C)(C(=O)N[C@@H](C)C(=O)N[C@@H](C)C(=O)N[C@@H](C)C(=O)N[C@@H](C)C(=O)N[C@@H](C)C(=O)N[C@H](C)C(N)=O)NC(=O)[C@H](CC2CCC2)NC(=O)[C@H](CCC(N)=O)NC(=O)[C@H](CO)NC(=O)[C@H](Cc2c[nH]c3ccccc23)NC(=O)[C@H](Cc2ccc(O)cc2)NC(=O)[C@H](CCC(=O)O)NC1=O)[C@@H](C)O [compound 351]"
  Target: "SJSA-1 cells"
  50 μM % Lysed cells (1 h LDH) / %: 0
- Compound: "CCCC[C@H](NC(=O)[C@H](C)NC(=O)[C@H](C)NC(=O)[C@]1(C)CCC/C=C/CCCCCC[C@@](C)(NC(=O)[C@H](Cc2ccccc2)NC(=O)[C@@H](NC(=O)[C@H](CC(C)C)NC(C)=O)[C@@H](C)O)C(=O)N[C@@H](C)C(=O)N[C@@H](Cc2ccc(O)cc2)C(=O)N[C@@H](Cc2c[nH]c3ccccc23)C(=O)N[C@@H](C)C(=O)N[C@@H](CCC(N)=O)C(=O)N[C@@H](CC(C)C)C(=O)N1)C(=O)N[C@@H](C)C(N)=O [compound 69]"
  Target: "SJSA-1 cells"
  50 μM % Lysed cells (1 h LDH) / %: 5

====

tested on: SJSA-1 cells; assay: Cell lysis by peptidomimetic macrocycles (LDH release); type: cell-based; details: 25 μM, SJSA-1, 1 h
Bridge positions count the residues as written; N and C are the ends. Square brackets hold non-standard residues; d marks the D form. Peptide text beside a SMILES is read from it. Phe(3,4-F2) = N[C@@H](Cc1ccc(F)c(F)c1)C(=O)O; R8 = C=CCCCCCC[C@@](C)(N)C(=O)O; Cba = N[C@@H](CC1CCC1)C(=O)O; hLeu = CC(C)CC[C@H](N)C(=O)O; S5 = C=CCCC[C@](C)(N)C(=O)O; Nle = CCCC[C@H](N)C(=O)O; Ac3c = NC1(C(=O)O)CC1; Aib = CC(C)(N)C(=O)O
Measured property: 25 μM % Lysed cells (1 h LDH) (%)

- Compound: "CC(=O)N[C@@H](CC(C)C)C(=O)N[C@H](C(=O)N[C@@H](Cc1ccccc1)C(=O)N[C@]1(C)CCCCCC/C=C\\CCC[C@@](C)(C(=O)N[C@@H](CO)C(=O)N[C@@H](C)C(=O)N[C@@H](C)C(N)=O)NC(=O)[C@H](CCC(C)C)NC(=O)[C@H](CCC(N)=O)NC(=O)[C@H](C)NC(=O)[C@H](Cc2c[nH]c3ccccc23)NC(=O)[C@H](Cc2ccc(O)cc2)NC(=O)[C@H](C)NC1=O)[C@@H](C)O [compound 114] (Ac-LTF[R8]AYWAQ[hLeu][S5]SAA-NH2; staple (Z) 4-11)"
  Target: "SJSA-1 cells"
  Measured property: "25 μM % Lysed cells (1 h LDH)"
  Experimental value: 4
- Compound: "CCCC[C@H](NC(=O)[C@H](C)NC(=O)[C@H](CO)NC(=O)[C@]1(C)CCCC=CCCCCCC[C@@](C)(NC(=O)[C@H](Cc2ccc(F)c(F)c2)NC(=O)[C@@H](NC(=O)[C@H](CC(C)C)NC(C)=O)[C@@H](C)O)C(=O)N[C@@H](CCC(=O)O)C(=O)N[C@@H](Cc2ccc(O)cc2)C(=O)N[C@@H](Cc2c[nH]c3ccccc23)C(=O)N[C@@H](C)C(=O)N[C@@H](CCC(N)=O)C(=O)N[C@@H](CC2CCC2)C(=O)N1)C(=O)N[C@@H](C)C(N)=O [compound 243] (Ac-LT[Phe(3,4-F2)][R8]EYWAQ[Cba][S5]SA[Nle]A-NH2; staple 4-11)"
  Target: "SJSA-1 cells"
  Measured property: "25 μM % Lysed cells (1 h LDH)"
  Experimental value: 39
- Compound: "CC(=O)N[C@@H](CC(C)C)C(=O)N[C@H](C(=O)N[C@@H](Cc1ccccc1)C(=O)N[C@]1(C)CCCCCCC=CCCC[C@@](C)(C(=O)N[C@@H](C)C(=O)N[C@@H](C)C(=O)N[C@@H](C)C(=O)N[C@@H](C)C(=O)N[C@@H](C)C(=O)N[C@H](C)C(N)=O)NC(=O)[C@H](CC(C)C)NC(=O)[C@H](CCC(N)=O)NC(=O)[C@H](C)NC(=O)[C@H](Cc2c[nH]c3cc(Cl)ccc23)NC(=O)[C@H](Cc2ccc(O)cc2)NC(=O)[C@H](C)NC1=O)[C@@H](C)O (single isomer, unassigned)"
  Target: "SJSA-1 cells"
  Measured property: "25 μM % Lysed cells (1 h LDH)"
  Experimental value: 0
- Compound: "CC(=O)N[C@@H](CC(C)C)C(=O)N[C@H](C(=O)N[C@@H](Cc1ccccc1)C(=O)N[C@]1(C)CCCCCCC=CCCC[C@@](C)(C(=O)N[C@@H](CO)C(=O)N[C@H](C(=O)N[C@@H](CO)C(N)=O)C(C)C)NC(=O)[C@H](CC(C)C)NC(=O)[C@H](CCC(N)=O)NC(=O)[C@H](C)NC(=O)[C@H](Cc2c[nH]c3ccccc23)NC(=O)[C@H](Cc2ccc(O)cc2)NC(=O)[C@H](C(C)C)NC1=O)[C@@H](C)O (single isomer, unassigned)"
  Target: "SJSA-1 cells"
  Measured property: "25 μM % Lysed cells (1 h LDH)"
  Experimental value: 1
- Compound: "CC[C@H](C)[C@H](NC(=O)[C@H](C)NC(=O)[C@H](C)NC(=O)[C@]1(C)CCCC=CCCCCCC[C@@](C)(NC(=O)[C@H](Cc2ccccc2)NC(=O)[C@@H](NC(=O)[C@H](CC(C)C)NC(C)=O)[C@@H](C)O)C(=O)N[C@@H](C)C(=O)N[C@@H](Cc2ccc(O)cc2)C(=O)N[C@@H](Cc2c[nH]c3ccccc23)C(=O)N[C@@H](C)C(=O)N[C@@H](C)C(=O)N[C@@H](CC(C)C)C(=O)N1)C(=O)N[C@H](C)C(N)=O (single isomer, unassigned)"
  Target: "SJSA-1 cells"
  Measured property: "25 μM % Lysed cells (1 h LDH)"
  Experimental value: 2
- Compound: "CC(=O)N[C@@H](CC(C)C)C(=O)N[C@H](C(=O)N[C@@H](Cc1ccccc1)C(=O)N[C@]1(C)CCCCCCC=CCCC[C@@](C)(C(=O)N[C@@H](Cc2c[nH]cn2)C(=O)N[C@@H](Cc2c[nH]cn2)C(=O)N[C@@H](CC(C)C)C(=O)N[C@H](C)C(N)=O)NC(=O)[C@H](CC(C)C)NC(=O)[C@H](CCC(N)=O)NC(=O)[C@H](C)NC(=O)[C@H](Cc2c[nH]c3ccccc23)NC(=O)[C@H](Cc2ccc(O)cc2)NC(=O)[C@H](C)NC1=O)[C@@H](C)O [compound 43] (Ac-LTF[R8]AYWAQL[S5]HHL[dA]-NH2; staple 4-11)"
  Target: "SJSA-1 cells"
  Measured property: "25 μM % Lysed cells (1 h LDH)"
  Experimental value: "−1"
- Compound: "CCCC[C@H](NC(=O)[C@H](C)NC(=O)[C@H](CO)NC(=O)[C@]1(C)CCCC=CCCCCCC[C@@](C)(NC(=O)[C@H](Cc2ccccc2)NC(=O)[C@@H](NC(=O)[C@H](CC(C)C)NC(C)=O)[C@@H](C)O)C(=O)N[C@@H](CCC(=O)O)C(=O)N[C@@H](Cc2ccc(O)cc2)C(=O)N[C@@H](Cc2c[nH]c3ccccc23)C(=O)N[C@@H](CO)C(=O)N[C@@H](CCC(N)=O)C(=O)N[C@@H](CC2CCC2)C(=O)N1)C(=O)N[C@@H](C)C(N)=O [compound 245] (Ac-LTF[R8]EYWSQ[Cba][S5]SA[Nle]A-NH2; staple 4-11)"
  Target: "SJSA-1 cells"
  Measured property: "25 μM % Lysed cells (1 h LDH)"
  Experimental value: 11
- Compound: "CC(=O)N[C@@H](Cc1ccccc1)C(=O)N[C@]1(C)CCCCCCC=CCCC[C@@](C)(C(=O)N[C@@H](C)C(=O)N[C@@H](C)C(=O)NC(C)(C)C(N)=O)NC(=O)[C@H](CC(C)C)NC(=O)C2(CC2)NC(=O)[C@H](CCC(=O)O)NC(=O)[C@H](Cc2c[nH]c3ccccc23)NC(=O)[C@H](Cc2ccc(O)cc2)NC(=O)[C@H](C)NC1=O [compound 22] (Ac-F[R8]AYWE[Ac3c]L[S5]AA[Aib]-NH2; staple 2-9)"
  Target: "SJSA-1 cells"
  Measured property: "25 μM % Lysed cells (1 h LDH)"
  Experimental value: 0
